Tested on: MDAMB175VII
ASSAY_NOTES: -log10 GI50 (growth inhibition 50%) (-log10(M)); higher = more potent growth inhibition
Label rule, in plain words: -log10 GI50 of 6 and up is True, under 6 is False.

COMPOUND	SYSTEM	CLASSIFICATION
O=C1c2ccccc2-[n+]2ccc3c([nH]c4ccccc43)c21	MDAMB175VII	True
COc1cc2ncnc(Nc3ccc(F)c(Cl)c3)c2cc1OCCCN1CCOCC1	MDAMB175VII	True
O=C(O)C(=O)O.[NH-][C@@H]1CCCC[C@H]1[NH-].[Pt+2]	MDAMB175VII	False

Tell me whether -log10 GI50 is at least 6 here: CC(/C=C/C(=O)NO)=C\[C@@H](C)C(=O)c1ccc(N(C)C)cc1
False

Tell me whether -log10 GI50 is at least 6 here: O=C(O)C1(C(=O)O)CCC1.[NH2-].[NH2-].[Pt+2]
False

Tell me whether -log10 GI50 is at least 6 here: Cc1cc(C(=O)N2CCN(c3cccc(Cl)c3)CC2)n(-c2ccccc2)n1 [XRP44X]
False

Tell me whether -log10 GI50 is at least 6 here: CCN(CC)C(=S)SSC(=S)N(CC)CC
True

Tell me whether -log10 GI50 is at least 6 here: O=C(/C=C/C#Cc1cccc(NS(=O)(=O)c2ccccc2)c1)NO
False

Tell me whether -log10 GI50 is at least 6 here: COc1cc2c(Nc3ccc(NC(=O)c4ccccc4)cc3)ncnc2cc1OCCCN1CCOCC1
False

Tell me whether -log10 GI50 is at least 6 here: O=C1C(Cl)=C(NCCN2CCOCC2)C(=O)c2ncccc21
False

Tell me whether -log10 GI50 is at least 6 here: Oc1cc(-c2nc(-c3ccccc3)[nH]c2-c2ccncc2)ccc1Cl
False

Tell me whether -log10 GI50 is at least 6 here: CC(C(C)N1CC(=O)NC(=O)C1)N1CC(=O)NC(=O)C1 (centres undefined)
False

Tell me whether -log10 GI50 is at least 6 here: CO[C@H]1C[C@@H]2CC[C@@H](C)[C@@](O)(O2)C(=O)C(=O)N2CCCC[C@H]2C(=O)O[C@H]([C@H](C)C[C@@H]2CC[C@@H](OCCO)[C@H](OC)C2)CC(=O)[C@H](C)/C=C(\C)[C@@H](O)[C@@H](OC)C(=O)[C@H](C)C[C@H](C)/C=C/C=C/C=C/1C
False

Tell me whether -log10 GI50 is at least 6 here: COc1ncc(-c2ccc3nccc(-c4ccnnc4)c3c2)cc1NS(=O)(=O)c1ccc(F)cc1F
True

Tell me whether -log10 GI50 is at least 6 here: Nc1[nH]nc2nnc(-c3c(-c4ccccc4)nn4ccccc34)cc12
False
